These data points were gathered from patent US20200399381A1.

# Test target: T1, human IFNAR-1 protein (form not stated) (human, UniProt P17181 28-436, limits assumed)
# T1 construct: bispecific ELISA
# T1 sequence (looked up): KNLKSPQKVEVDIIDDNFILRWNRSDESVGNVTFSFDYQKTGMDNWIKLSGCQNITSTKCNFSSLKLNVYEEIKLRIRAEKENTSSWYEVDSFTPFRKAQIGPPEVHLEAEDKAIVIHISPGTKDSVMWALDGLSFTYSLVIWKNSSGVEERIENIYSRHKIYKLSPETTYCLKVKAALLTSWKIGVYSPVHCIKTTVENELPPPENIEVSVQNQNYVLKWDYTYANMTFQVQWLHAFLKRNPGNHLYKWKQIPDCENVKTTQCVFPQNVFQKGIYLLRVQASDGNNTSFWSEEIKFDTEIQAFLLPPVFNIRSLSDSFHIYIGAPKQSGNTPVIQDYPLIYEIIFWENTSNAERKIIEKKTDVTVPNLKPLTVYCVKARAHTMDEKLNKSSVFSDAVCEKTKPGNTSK
# Assay explanation: affinity measurement of purified IgG at different concentrations (method not named)
Measurement kind: koff (s⁻¹)
The figure you give is taken to be in s⁻¹; do not add the unit.

Please list koff recorded for the binder 8G11-H2L2 (antibody, V domains shown, Humanized IgG expressed in HEK293; also called VH2 + VL2 (8G11)) VH: QVQLVQSGAEVVKPGASVKVSCKGSGFNIKDYYMHWVRQAPGQGLEWIGRIDPEDAETKYAPKFQGRVTMTADTSTSTVYMELSSLRSEDTAVYYCARGGNFYVMDYWGQGTLVTVSS VL: DIQLTQSPSFLSTSVGDRVTITCKASQNVGTNVVWYQQKPGKSPKVLIYSASYRVSGVPSRFSGSGSGTEFTLIISSLQPEDFATYYCQQKNNYPYTFGQGTKLEIK
0.000125
